- PROTOCOL_SUMMARY: inhibitors of TNFa-induced NFkB p65 translocation, primary screen, imaging, HUVEC, MLSMR starter and 10KST1 sets (AID 438);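 note: compound added about 3h40 before a 20 min TNFalpha stimulation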
- EXPERIMENTAL_PARAMETERS: HUVEC TNFa-induced p65 nuclear translocation; measured here: nuclei count (cytotoxicity indicator), at 2.08 µM
READOUT_TYPE: cell count
Answers are plain numbers.

Sample answers from the record:
CCOc1ccc(N(CC(=O)NC2CCCC(C)C2C)S(=O)(=O)c2c(C)noc2C)cc1 (stereo not drawn) = 872
O=C(Cn1nc(Cc2cccnc2)c2ccccc2c1=O)Nc1ccc2c(c1)OCO2 = 576

Okay, next one:
Which cell count is reported for this molecule? Cn1c(=O)n(C)c2cc(NC(=O)C(F)(F)F)ccc21
231
